Sourced from patent US7101851

target or system: T1, alpha subunit of the human FcεRI receptor expressed on Chinese hamster ovary cells (human, UniProt P12319 26-257)
T1 construct: whole, on cells; also called CHO FcεRI+ cells
T1 sequence (looked up): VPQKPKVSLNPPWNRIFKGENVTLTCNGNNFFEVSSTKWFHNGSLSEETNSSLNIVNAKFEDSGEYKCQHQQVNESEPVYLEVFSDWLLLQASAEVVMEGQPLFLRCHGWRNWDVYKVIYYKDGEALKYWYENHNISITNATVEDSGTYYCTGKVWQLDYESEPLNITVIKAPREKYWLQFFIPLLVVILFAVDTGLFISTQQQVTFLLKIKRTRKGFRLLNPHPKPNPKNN
run description: inhibition of 125I-IgE binding to CHO cells expressing human FcεRI alpha subunit
Bridges are numbered along the chain shown (N, C = ends). Where no end group is shown, it is not given here. The star is where a group is joined. Biotin = O=C1N[C@H]2[C@H](CS[C@H]2CCCCC(=O)*)N1
Recorded IC50 determines the label; the label ranges are lower band: < 20 µM; central band: ≥ 20 µM and < 80 µM; upper band: ≥ 80 µM

Record excerpt, results attached:
binder	assigned class
Ac-CLEGPWGWFCI-NH2 (disulfide 1-10 (inferred), synthetic) [IGE044]	upper band
NLPRCTEGPWGWVCMAY (disulfide 5-14 (inferred), synthetic) [IGE076]	lower band
Ac-NLPRCTEGPWGWACM (disulfide 5-14 (inferred), synthetic) [IGE209]	lower band

Enquiry: For this binder, which bin applies? Biotin-NLPRCTEGPWGWVCM (disulfide 5-14 (inferred), synthetic) [IGE078]
Return: lower band

Enquiry: Proceed to NLPRCTEGPNGWVCMAAD-NH2 (disulfide 5-14 (inferred), synthetic) [IGE051]
Return: central band
